# key: entry, value: CC50 at 24 h
- assay-explanation: in vitro
- condition-details: rat, gh3-tre-luc cells, AC50 (uM) modified / 1000
Structures can show the parent of a compound that is named as a salt.

Solved cases below.
compound	CC50 at 24 h
Nc1nc(N)nc(N)n1	> 90 µM
CC(=O)CC(c1ccccc1)c1c(O)c2ccccc2oc1=O (centres unmarked)	> 90 µM

Problem: Answer with reported CC50 at 24 h of N[C@H]1C(O)O[C@H](CO)[C@@H](O)[C@@H]1O (some centres unmarked) [Glucosamine hydrochloride]
Solution: > 50 µM

Problem: Respond only with CC50 at 24 h recorded for CN1C2=CC(=O)/C(=N\NC(N)=O)C=C2CC1S(=O)(=O)O (centres unmarked) [Carbazochrome sodium sulfonate]
Solution: > 50 µM

Problem: Tell us which CC50 at 24 h value is on record for `COc1cccc(Br)c1`
Solution: > 90 µM

* * *

- System: GH3-TRE-Luc cell line
- condition-details: read-out: AC50 (uM) modified / 1000; Tox21_110001=Tox21_201276; viability, 1 nM T3 present, 24 h
readout-label: CC50 (µM)
Note: unit µM is implicit; provide only the numeric part.

Problem: Write down CC50 measured for item O=C1C2CC=CCC2C(=O)N1SC(Cl)(Cl)Cl (stereo not shown) [Captan]
Solution: 76

* * *

- System: GH3-TRE-Luc cell line
- condition-details: read-out: AC50 (uM) modified / 1000; Tox21_110001=Tox21_201147; viability, 1 nM T3 present, 24 h
readout-label: CC50 (µM)
The reply should be a number in µM, with the unit left off.

Problem: Could you please provide reported CC50 for `Oc1ccc(OCc2ccccc2)cc1` ? Thanks!
Solution: 10.2

* * *

- assay-explanation: in vitro
- condition-details: rat, gh3-tre-luc cells, AC50 (uM) modified / 1000, Tox21_110001=Tox21_202072; viability, 1 nM T3 present, 24 h
readout-label: CC50 at 24 h (µM)
Write the value in µM as a bare number.

Problem: Please report the measured CC50 at 24 h for ClC1=C(Cl)[C@]2(Cl)[C@H]3[C@H]([C@@H]4C=C[C@H]3C4)[C@@]1(Cl)C2(Cl)Cl [Aldrin]
Solution: 51.6

* * *

- Tested on: GH3-TRE-Luc cell line
- condition-details: read-out: AC50 (uM) modified / 1000; Tox21_110001=Tox21_113024; viability, 1 nM T3 present, 24 h
readout-label: CC50 (µM)
Record the value in µM, omitting the unit from your answer.

Problem: For the molecule CCCCCCCC[N+](C)(C)CCCCCCCC [Dioctyldimethylammonium chloride] , give its measured CC50 value.
Solution: 20.1

* * *

- Tested on: GH3-TRE-Luc cell line
- condition-details: read-out: AC50 (uM) modified / 1000; Tox21_110001=Tox21_110967; viability, 1 nM T3 present, 24 h
readout-label: CC50 (µM)
Give the number; µM is assumed, so skip it.

Problem: Supply reported CC50 belonging to this molecule: CN1CCc2cccc3c2[C@H]1Cc1ccc(O)c(O)c1-3 [Apomorphine]
Solution: 27.3

* * *

- Test system: GH3-TRE-Luc cell line
- condition-details: read-out: AC50 (uM) modified / 1000; Tox21_110001=Tox21_113091; viability, 1 nM T3 present, 24 h
readout-label: CC50 (µM)
Express it in µM; write the number only.

Problem: Read off the recorded CC50 for CCCCCCCCCCCC[N+](C)(C)Cc1ccccc1 [Benzyldodecyldimethylammonium bromide]
Solution: 5.39
